FYI, the data here is from patent US20260098008A1.

- TARGET_SYSTEM: K2P2.1 (TREK-1) (Mus musculus)
- Construct: expressed in transfected cells; host or cells: Xenopus laevis oocytes injected with mRNA (pGEMHE/pMO vector)
- Sequence (P97438 1-411 isoform P97438-2): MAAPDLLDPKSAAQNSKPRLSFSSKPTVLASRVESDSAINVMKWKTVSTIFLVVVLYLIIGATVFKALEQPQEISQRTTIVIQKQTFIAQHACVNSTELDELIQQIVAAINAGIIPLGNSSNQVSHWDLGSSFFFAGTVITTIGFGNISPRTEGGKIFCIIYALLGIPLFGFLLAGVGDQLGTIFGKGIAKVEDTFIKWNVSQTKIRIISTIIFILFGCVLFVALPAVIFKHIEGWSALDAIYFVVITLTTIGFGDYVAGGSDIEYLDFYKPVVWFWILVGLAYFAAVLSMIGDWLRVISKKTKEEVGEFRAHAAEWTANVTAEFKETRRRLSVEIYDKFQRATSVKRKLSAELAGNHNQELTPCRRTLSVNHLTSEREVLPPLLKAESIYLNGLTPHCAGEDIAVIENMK
- METHOD: Two-electrode voltage clamp (TEVC) in Xenopus oocytes
- Assay type: cell-based
- CONDITIONS: 20 uM; oocytes expressing TREK1
PROPERTY_LABEL: TREK-1 fold-activation (fold)

A = O=C(/C=C/C(F)(F)F)Nc1ccc(C(=O)NCc2ccc(Cl)cc2Cl)cc1
B = O=C(NCc1ccc(Cl)cc1Cl)c1ccc(NCC2CO2)cc1 (stereo not shown)
// pick larger TREK-1 fold-activation from pair: A vs B Use the label to indicate which entry you chose. B
(B: 2.5 fold, A: 1.0 fold)

* * *

- TARGET_SYSTEM: K2P2.1 (TREK-1) (Mus musculus)
- Construct: expressed in transfected cells; host or cells: Xenopus laevis oocytes injected with mRNA (pGEMHE/pMO vector)
- Sequence (P97438 1-411 isoform P97438-2): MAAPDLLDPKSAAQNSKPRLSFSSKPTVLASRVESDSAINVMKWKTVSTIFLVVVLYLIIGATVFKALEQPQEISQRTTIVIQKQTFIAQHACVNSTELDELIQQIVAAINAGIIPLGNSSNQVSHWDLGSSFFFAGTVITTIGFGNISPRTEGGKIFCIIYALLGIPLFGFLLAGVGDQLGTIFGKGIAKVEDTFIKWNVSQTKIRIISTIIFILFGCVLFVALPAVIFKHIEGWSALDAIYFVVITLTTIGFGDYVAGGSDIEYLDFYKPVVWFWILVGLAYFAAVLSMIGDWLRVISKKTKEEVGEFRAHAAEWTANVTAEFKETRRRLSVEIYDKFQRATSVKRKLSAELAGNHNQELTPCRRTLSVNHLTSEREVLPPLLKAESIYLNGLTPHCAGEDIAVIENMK
- METHOD: Two-electrode voltage clamp (TEVC) in Xenopus oocytes
- Assay type: cell-based
- CONDITIONS: Fold-activation at 20 uM in oocytes
PROPERTY_LABEL: TREK-1 activity class

These recorded examples may help you get a feel for the data.
[
  {
    "COMPOUND_SMILES": "CS(=O)(=O)Nc1ncc(C(=O)NCc2ccc(Cl)cc2Cl)cn1",
    "TREK-1 activity class": "+ (1.5-2.5 fold)"
  },
  {
    "COMPOUND_SMILES": "N#CCC(=O)Nc1ccc(C(=O)NCc2ccc(Cl)cc2Cl)cc1",
    "TREK-1 activity class": "++ (2.5-5 fold)"
  },
  {
    "COMPOUND_SMILES": "CNS(=O)(=O)c1ccc(C(=O)NCc2ccc(Cl)cc2Cl)cc1",
    "TREK-1 activity class": "++ (2.5-5 fold)"
  },
  {
    "COMPOUND_SMILES": "O=C(NCc1ccc(Cl)cc1Cl)c1cccc(B(O)O)c1",
    "TREK-1 activity class": "+ (1.5-2.5 fold)"
  }
]

Fill in: TREK-1 activity class of `O=C(NCc1ccc(Cl)cc1Cl)c1ccc(C(=O)N2CCS2(=O)=O)cc1` is ___ + (1.5-2.5 fold)
